meta.source: the kinase profiling compilation of Christmann-Franck et al. (2016)

biological target: ROCK1 (human); assay: radiometric filter-binding kinase assay, Kinase HotSpot; details: compound 0.5 µM; ATP 10 µM
observable: residual activity (%)
One number for each entry, in %.

[
  {
    "compound": "CCn1cnc2c(Nc3cccc(Cl)c3)nc(N[C@@H]3CCCC[C@@H]3N)nc21",
    "observable": "residual activity",
    "unit-of-measure": "%",
    "measurement": 96.5
  },
  {
    "compound": "CC(=O)O/N=C1\\C(=C2\\C(=O)Nc3cc(Br)ccc32)Nc2ccccc21",
    "observable": "residual activity",
    "unit-of-measure": "%",
    "measurement": 94.6
  },
  {
    "compound": "Oc1ccc(Nc2nc(-c3ccc(Cl)cc3)cs2)cc1",
    "observable": "residual activity",
    "unit-of-measure": "%",
    "measurement": 103
  },
  {
    "compound": "O=C1NC(=O)/C(=C\\c2ccc3nccnc3c2)S1",
    "observable": "residual activity",
    "unit-of-measure": "%",
    "measurement": 94
  },
  {
    "compound": "COc1cc2ncnc(N3CCN(C(=O)Nc4ccc(Oc5ccccc5)cc4)CC3)c2cc1OC",
    "observable": "residual activity",
    "unit-of-measure": "%",
    "measurement": 86
  }
]

# map each compound to its residual activity
1. O=C1NC(=O)C(c2cn(CCCO)c3ncccc23)=C1c1cnccn1
2. CCN(CC)CCCCN1c2ccccc2Oc2ccc(Cl)cc21
3. CC(C)c1nn(-c2c(Cl)cccc2Cl)c2nc(Cc3ccc(OCCO)cc3)nc(O)c12
4. O=C1Cc2c([nH]c3ccc(Br)cc23)-c2ccccc2N1
5. Cn1sc(=O)n(Cc2ccccc2)c1=O
6. CN(C)C[C@H]1CCn2c(c(C3=C(c4cn(C)c5ccccc45)C(=O)NC3=O)c3ccccc32)C1

1. 90.2
2. 92.6
3. 101
4. 96.1
5. 94.6
6. 106

Respectfully, I request residual activity for each entry included below.
1. COc1ccc(OC)c2c(=S)c3ccccc3[nH]c12
2. Cn1cnc2cc3c(Nc4cccc(Br)c4)ncnc3cc21
3. O=C1Nc2ccccc2/C1=C1/Nc2ccccc2/C1=N\OCCC(O)CO (configuration not stated)
4. COc1cc2ncc(-c3ccccc3)nc2cc1OC
5. O=C(CCCc1ccc(-c2ccccc2F)cc1)Nc1ccc(O)cc1
6. Cc1nc2cc3nc(-c4cccs4)cnc3cc2n1C

97.8
98.6
101
95.5
106
97.8
